Values were extracted from patent US10858369B2.

Assay: Aqueous solubility in solvents with different pH (excess solute equilibrated at 20° C., UV spectrometry)
Type: physicochemical
Settings: pH 3.3, water, Water (pH 3.3), at least 48 hours
measured.property: solubility thermodynamic
Write the quantity with the unit trailing the number.

q: Suppose we examine the molecule CC(C)CN(C[C@@H](O)[C@H](Cc1ccccc1)NC(=O)O[C@H]1CO[C@H]2OCC[C@H]21)S(=O)(=O)c1ccc(N)cc1 [Form K] ; what solubility thermodynamic value has been reported?
a: 190 µg/mL

* * *

Assay: Approximate solubility in different solvents at approximate 23° C.
Type: physicochemical
Conditions: organic solvent or mixture, thermodynamic from solid, Tetrahydrofurane
measured.property: solubility

q: Suppose we examine the compound CC(C)CN(C[C@@H](O)[C@H](Cc1ccccc1)NC(=O)O[C@H]1CO[C@H]2OCC[C@H]21)S(=O)(=O)c1ccc(N)cc1 [Form A] ; what solubility value has been reported?
a: 102 to 203 mg/mL

* * *

Test: Aqueous solubility in solvents with different pH (excess solute equilibrated at 20° C., UV spectrometry)
Type: physicochemical
Conditions: pH 1.1, aqueous buffer, 0.1N HCl (pH 1.1), at least 24 hours
measured.property: solubility thermodynamic

q: Suppose we examine the compound CC(C)CN(C[C@@H](O)[C@H](Cc1ccccc1)NC(=O)O[C@H]1CO[C@H]2OCC[C@H]21)S(=O)(=O)c1ccc(N)cc1 [Form A] ; what solubility thermodynamic value has been reported?
a: 830 µg/mL

* * *

Assay: Approximate solubility in different solvents at approximate 23° C.
Assay type: physicochemical
Conditions: organic solvent or mixture, thermodynamic from solid, Isopropylether
measured.property: solubility

q: Suppose we examine the compound CC(C)CN(C[C@@H](O)[C@H](Cc1ccccc1)NC(=O)O[C@H]1CO[C@H]2OCC[C@H]21)S(=O)(=O)c1ccc(N)cc1 [Form A] ; what solubility value has been reported?
a: < 3400 µg/mL

* * *

Experiment: Approximate solubility in different solvents at approximate 23° C.
Type: physicochemical
Settings: organic solvent or mixture, thermodynamic from solid, Acetone
measured.property: solubility

q: Suppose we examine the compound CC(C)CN(C[C@@H](O)[C@H](Cc1ccccc1)NC(=O)O[C@H]1CO[C@H]2OCC[C@H]21)S(=O)(=O)c1ccc(N)cc1 [Form A] ; what solubility value has been reported?
a: 106 to 211 mg/mL

* * *

Test: Aqueous solubility in solvents with different pH (excess solute equilibrated at 20° C., UV spectrometry)
Assay type: physicochemical
Settings: pH 4, aqueous buffer, Buffer pH 4 (citrate/HCl) (pH 4.0), at least 24 hours
measured.property: solubility thermodynamic
Write the quantity with the unit trailing the number.

q: Suppose we examine the compound CC(C)CN(C[C@@H](O)[C@H](Cc1ccccc1)NC(=O)O[C@H]1CO[C@H]2OCC[C@H]21)S(=O)(=O)c1ccc(N)cc1 [Form A] ; what solubility thermodynamic value has been reported?
a: 90 µg/mL

* * *

Assay: Aqueous solubility in solvents with different pH (excess solute equilibrated at 20° C., UV spectrometry)
Assay type: physicochemical
Conditions: pH 3, aqueous buffer, Buffer pH 3 (citrate/HCl) (pH 3.0), at least 48 hours
measured.property: solubility thermodynamic (µg/mL)
The figure you give is taken to be in µg/mL; do not add the unit.

q: Suppose we examine the molecule CC(C)CN(C[C@@H](O)[C@H](Cc1ccccc1)NC(=O)O[C@H]1CO[C@H]2OCC[C@H]21)S(=O)(=O)c1ccc(N)cc1 [Form K] ; what solubility thermodynamic value has been reported?
a: 120
